Values were extracted from patent US8742138B2.

Below, each entry is listed with its recorded IC50.
assay system: HIF-PHD2 (Homo sapiens (Human), UniProt Q9GZT9)
Sequence (Q9GZT9 whole entry): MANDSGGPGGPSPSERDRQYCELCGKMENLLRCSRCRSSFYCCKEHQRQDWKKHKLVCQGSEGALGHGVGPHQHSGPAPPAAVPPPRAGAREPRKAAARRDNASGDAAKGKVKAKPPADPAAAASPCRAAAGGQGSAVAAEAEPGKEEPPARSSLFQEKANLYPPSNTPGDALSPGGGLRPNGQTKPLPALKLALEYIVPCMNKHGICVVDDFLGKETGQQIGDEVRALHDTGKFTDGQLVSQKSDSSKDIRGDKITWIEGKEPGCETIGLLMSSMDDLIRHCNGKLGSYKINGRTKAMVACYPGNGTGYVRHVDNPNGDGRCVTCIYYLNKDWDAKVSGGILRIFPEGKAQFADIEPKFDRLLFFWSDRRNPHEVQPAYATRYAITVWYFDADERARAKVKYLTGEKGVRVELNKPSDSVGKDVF
Dear colleague, please return just the value in nM, with no unit written.

Summary for this compound, "COc1ccc(-c2cccc3c(O)c(C(=O)NCC(=O)O)c(=O)oc23)cc1" : IC50 is 80

Data point: "O=C(O)CNC(=O)c1c(O)c2ccc(-c3ccc(OC(F)(F)F)cc3)cc2oc1=O" ; IC50 = 150

IC50 measured on "O=C(O)CNC(=O)c1c(O)c2cccc(-c3ccc(C(F)(F)F)cc3)c2oc1=O" = 90

Record "Cc1ccc(-c2cccc3c(O)c(C(=O)NCC(=O)O)c(=O)oc23)cc1" . Reported IC50: 80

Just so you know, measured IC50 for "O=C(O)CNC(=O)c1c(O)c2ccc(Br)cc2oc1=O" came out at 150

Looking up "Cc1ccc(-c2ccc3c(O)c(C(=O)NCC(=O)O)c(=O)oc3c2)cc1" , I see its IC50 listed as 150

Documented IC50 of "O=C(O)CNC(=O)c1c(O)c2cccc(-c3ccccc3Cl)c2oc1=O" : 200

Lab note: "O=C(O)CNC(=O)c1c(O)c2ccc(-c3cccc(C(F)(F)F)c3)cc2oc1=O" gave IC50 of 150

// sample "O=C(O)CNC(=O)c1c(O)c2ccc(-c3cccc(OC(F)(F)F)c3)cc2oc1=O" , its IC50 was 150

In plain terms, "COc1ccc(-c2ccc3c(O)c(C(=O)NCC(=O)O)c(=O)oc3c2)cc1" has a documented IC50 of 150
